Recorded values, source PubChem BioAssay (NCI).

Here, each record is paired with measured TGI data.
Tested on: SNB-78 CNS
experiment.notes: NCI tumour cell line growth inhibition, 48 h
measured.quantity: TGI

compound | test.result
CC(O)c1ccc(C(O)/C(=N\NC(=O)c2ccncc2)c2nc3ccc([N+](=O)[O-])cc3[nH]c2=O)cc1 (configuration not stated) | > 100 µM
COc1cc([C@@H]2c3cc4c(cc3[C@@H](NC(=O)c3ccc(OC(C)=O)cc3)C3COC(=O)[C@@H]32)OCO4)cc(OC)c1O (some centres not stated) | > 100 µM
Cc1nc(-n2nc(-c3ccccc3)cc2-c2ccccc2)sc1C(/C=C/c1ccc([N+](=O)[O-])cc1)=N/NC(N)=S | 56.7 µM
COC(=O)c1cc2c(nc1C)-c1ccccc1OS2(=O)=O | > 100 µM
COc1ccc(/C=C(\C2=NC(=O)CS2)c2nc3ccccc3[nH]2)cc1 | > 100 µM
Brc1ccc(C[N+]23CN4CN(CN(C4)C2)C3)cc1 | > 100 µM
O=Cc1cn(S(=O)(=O)c2ccccc2)c2ccccc12 | > 100 µM
O=[P+](O)c1cccnc1 | > 100 µM
c1cnc2nc3n(c2c1)CSC3 | > 100 µM
O=C(CC(=O)N1N=C(c2ccccc2)C(N=Nc2ccccc2Cl)C1=O)Nc1ccccc1Cl (configuration not stated) | > 100 µM
O=C1C(Cl)C(c2ccc([N+](=O)[O-])cc2)N1n1cnc2ccccc2c1=O (configuration not stated) | 88.1 µM
Cc1ccc(S(=O)(=O)OC2CSSCC2OS(=O)(=O)c2ccc(C)cc2)cc1 (configuration not stated) | 37 µM
[Au+].c1c[n-]cn1.c1ccc([PH+](c2ccccc2)c2ccccc2)cc1 | > 45.2 µM
COc1ccc(C2NC3=C(CCCC3)N2)cc1 | > 100 µM
Cc1cc(Cl)ccc1Nc1nc2c(s1)C(=O)c1ccccc1C2=O | > 80.9 µM
COc1ccc(OC)c(-c2cc(=O)c3cc4c(cc3[nH]2)OCO4)c1 | > 100 µM
COc1ccc(N2C(=O)C3C=CC(n4[nH]c(=O)n(Cc5ccccc5)c4=O)CC3C2=O)cc1 (configuration not stated) | > 100 µM

###

System: HOP-92 NSCLC
experiment.notes: NCI tumour cell line growth inhibition, 48 h
Here, each record is paired with measured TGI data.
measured.quantity: TGI

molecule | test.result
COC(=O)C1=Cc2cn(S(=O)(=O)c3ccc(C)cc3)c3cccc(c23)C(C=C(C)C)N1C(C)=O (centres undefined) | > 100 µM
NCCCCCCCCCn1c2c(c3ccccc3c1=O)C(=O)c1ccccc1-2 | 21.1 µM
C/C(CC(=O)Nc1cccc(C)c1C)=N\NC(N)=S | > 100 µM
COc1cccc2c1C(=O)c1c(O)c3c(c(O)c1C2=O)CC(O)(C(C)=O)CC3O (centres undefined) | 28.9 µM
CC(C)=Cc1cc(C(=O)NCCNC(=O)c2cc(C=C(C)C)nc(NC#N)n2)nc(NC#N)n1 | > 100 µM
C=CCn1c(=O)c(C(=O)NC(=O)OCC)cn(C2CCCCC2)c1=O | > 100 µM
COc1ccc(NC(=O)C2=CC(=O)c3ccc(O)cc3C2=O)c(OC)c1 | > 100 µM
COC1/C=C/OC2(C)Oc3c(C)c(O)c4c(O)c(c(C=NOC(c5ccccc5)c5ccccc5)c(O)c4c3C2=O)NC(=O)/C(C)=C/C=C/C(C)C(O)C(C)C(O)C(C)C(OC(C)=O)C1C (centres undefined) | 2.74 µM
CC1(C)OC2[C@@H](CO[C@@]3([C@H]4OC(C)(C)O[C@@H]4CO)OC(C)(C)O[C@@H]23)O1 (some centres undefined) | > 100 µM

###

System: T-47D breast
experiment.notes: NCI tumour cell line growth inhibition, 48 h
measured.quantity: log10 TGI (log10 of the value in µM)

compound | measured.quantity | test.result
O=C1Nc2c(ccc(Cl)c2Cl)/C1=C\c1cc(C(F)(F)F)cc(C(F)(F)F)c1 | log10 TGI | 1.01
COc1cc(/C=C2\CC3C4CCC5=CC(=O)CC[C@]5(C)C4CC[C@]3(C)C2=O)ccc1OCCN1CCCCC1 (stereo not given in full) | log10 TGI | 1.62
COc1cc2oc(-c3ccc(O)cc3)cc(=O)c2c(OC)c1O | log10 TGI | 1.95
Cc1cc2nc(CC(C(F)(F)F)C(F)(F)F)oc2cc1C | log10 TGI | 1.03
COc1cc(C2c3cc4c(cc3OC(NNc3ccccc3)C2C)OCO4)cc(OC)c1O (stereo not given) | log10 TGI | 1.03
C=C(C)[C@@H]1CC[C@]2(C(=O)N3CCN(C)CC3)CC[C@]3(C)[C@H](CC[C@@H]4[C@@]5(C)CC[C@H](O)C(C)(C)[C@@H]5CC[C@]43C)[C@@H]12 | log10 TGI | 0.57
COc1cc(/C=C/C2=NN(c3cccc(S(=O)(=O)O)c3)C3(C2)SCC(=O)N3c2nc3ccccc3s2)cc(OC)c1OC (stereo not given) | log10 TGI | 1.68
CSc1nc(SC)c2c(C)cn(C3OC(C)C(O)C(O)C3O)c2n1 (stereo not given) | log10 TGI | 1.93

###

Tested on: UO-31 renal
experiment.notes: NCI tumour cell line growth inhibition, 48 h; in the data active = GI50 below about 0.43 µM; inactive = the rest
Classes used: 1 (active), -1 (inactive)

chemical.smiles | assigned.class
O=C1Nc2c(ccc(Cl)c2Cl)/C1=C\c1cc(C(F)(F)F)cc(C(F)(F)F)c1 | -1
COc1cccc(/C=C2\CCc3ccccc3C2=O)c1 | -1
COc1cc(OC)c(/C=C/C(=O)c2c(O)cc(OC)c(C3CCN(C)CC3)c2OC)c(OC)c1 | -1
Oc1[nH]c2ccccc2c1/C=c1/ccc2c(c1)N=C(c1cc(F)cc(F)c1)N=2 | -1
Cc1cc2nc3c4cc([N+](=O)[O-])ccc4n(CCN(C)C)c3nc2cc1C | 1

###

Here, each record is paired with measured TGI data.
Test system: SNB-75 CNS
experiment.notes: NCI tumour cell line growth inhibition, 48 h

compound | TGI
O=C(CC(=O)N1N=C(c2ccccc2)C(N=Nc2ccccc2Cl)C1=O)Nc1ccccc1Cl (configuration not stated) | 49.9 µM
COc1ccc2c(c1)CC1N(C)CCC13CCCCC23 (configuration not stated) | > 100 µM
Cc1ccc(S(=O)(=O)OC2CSSCC2OS(=O)(=O)c2ccc(C)cc2)cc1 (configuration not stated) | 28.1 µM
O=P(Nc1cccc(Cl)c1)(Oc1ccccc1)N(CCCl)CCCl (configuration not stated) | 30.4 µM
CC/C(=C(/CC)c1ccc(O)cc1)c1ccc(O)cc1 | 6.48 µM
COc1cc(/C=C/c2ccc(S(N)(=O)=O)cc2)cc(OC)c1 | 53.1 µM
Cc1cc2c(C)nn(Cc3ccccc3Cl)c2c(C#N)c1C | > 100 µM
O=Cc1cn(S(=O)(=O)c2ccccc2)c2ccccc12 | > 100 µM
CC1(C)OC2[C@@H](CO[C@@]3([C@H]4OC(C)(C)O[C@@H]4CO)OC(C)(C)O[C@@H]23)O1 (some centres not stated) | > 100 µM
NNC(=S)NN/C=C(\C=Nc1ccccc1)[N+](=O)[O-] | > 100 µM
C[C@H]1CCC2C(CN3CCCCC3)C(=O)OC2[C@]2(C)C(=O)CC(N3CCCCC3)C12O (some centres not stated) | 49.4 µM
COC(=O)Cc1nn2c(nc1=O)sc1ccc3ccccc3c12 | 76.3 µM
CC(=O)Nc1ccc(C(=O)n2[nH]c(C)c(/C=C3\C(=O)C=Cc4ccccc43)c2=O)cc1 | > 100 µM
NNc1ncnc2cccc(Cl)c12 | > 100 µM
COCC1N=C(c2cc(OC)c(OC)c(OC)c2-c2cc3c(cc2[C@@H](C)O)OCO3)O[C@H]1c1ccccc1 (some centres not stated) | > 72.3 µM
CC(=O)Nc1ccc(Cc2ccc3[nH]c(=O)cc(C)c3c2)cc1 | 28.1 µM
O=C(NCCCl)NCc1ccccc1 | > 100 µM
CCOC(=O)C1=C(C)N(c2ccc(Cl)cc2)C2(O)C=CC(Nc3ccc(Cl)cc3)=C3C(=O)N(c4ccccc4)C(=O)C312 (configuration not stated) | 20.3 µM
[Au+].c1c[n-]cn1.c1ccc([PH+](c2ccccc2)c2ccccc2)cc1 | 33.7 µM
CCOP(=O)(OCC)C(C)(CC)/N=C(\N)NC#N (configuration not stated) | > 100 µM
COc1ccc(Nc2ncccc2C(=O)NCc2cn(Cc3cccc(Oc4ccccc4)c3)nn2)c(OC)c1 | > 84.5 µM
O=C(O)CCCc1cc2c(s1)-c1cccc3cccc-2c13 | > 100 µM
Cn1cc(-c2ccc3nnc(C(F)(F)c4ccc5ncccc5c4)n3n2)cn1 | > 92.4 µM
CSc1nc(SC)c2c(C)cn(C3OC(C)C(O)C(O)C3O)c2n1 (configuration not stated) | > 100 µM
C1C[S][Ge]2([S]CCS1)[S]CCSCC[S]2 | 95 µM
CCSc1[nH]c(NC(=NC(C)C)NC(=O)c2ccccc2)c(C(N)=O)c1C(N)=O | > 10 µM
COc1cc(O)c2c(=O)c(OC)c(-c3ccc(OC)c(OC)c3)oc2c1.[Sn] | > 100 µM
COc1cc(C(=O)N(C(=O)N2CCCCC2)c2ccccc2)cc(OC)c1OC | > 100 µM
CC(=O)CC12NC(=O)N(C)N=C1N(C)C(=O)N(C)C2=O (configuration not stated) | > 100 µM
CN1C(=O)[C@@H]2[C@@H]3c4ccccc4N[C@@H]3c3[nH]c4ccccc4c3[C@@H]2C1=O | 85.8 µM
Brc1ccc(C[N+]23CN4CN(CN(C4)C2)C3)cc1 | > 100 µM
CON(C(=O)OC(C)(C)C)c1ccccc1 | > 100 µM
N#CCN1CCCN(CC#N)CCN(CC#N)CCCN(CC#N)CC1 | > 100 µM
CNC(=O)c1cc(Oc2ccc3nc(NC(=O)Nc4cc(C(F)(F)F)cc(C(F)(F)F)c4)sc3c2)ccn1 | 2.7 µM
O=C1c2ccccc2C(=O)c2c(NCC3CO3)cccc21 (configuration not stated) | > 100 µM
C=C1CCC2(C(C)=O)COC1(C)O2 (configuration not stated) | > 100 µM
O=c1[nH]c(-c2ccc([N+](=O)[O-])cc2)nc2ccc(Cl)cc12 | > 100 µM
COc1cc(CC2C(=O)OCC2[C@@H](OC(C)=O)c2ccc3c(c2)OCO3)c(Br)c(OC)c1OC (some centres not stated) | > 100 µM
CCC1OC(=O)CC(O)C(C)C(OC2OC(C)CC(N(C)C)C2O)C(CC=O)CC(C)C(=O)/C=C/C2(C)OC2C1C (configuration not stated) | 40.8 µM
CCOC(=O)Nc1cc(-c2ccc(C)c(NS(C)(=O)=O)c2)nn2c(C)nnc12 | 9.13 µM
CCOC(=O)CCC(C(=O)OCC)n1nnc2ccc(Nc3c(C)[n+]([O-])c4cc(F)c(OCC)cc4[n+]3[O-])cc21 (configuration not stated) | > 100 µM
COc1ccccc1[C@@H]1CCC2CC[C@@H](c3ccccc3OC)[N+]21Cc1ccccc1 (some centres not stated) | 8.65 µM
